- Experimental system: μ-opioid receptor (Homo sapiens)
- Test protocol: μ-opioid receptor [35S]GTPγS functional assay, HEK-293 or CHO cells
- Assay type: biochemical
- Condition info: HEK-293 or CHO cells; relative to DAMGO
Measured quantity: Emax (%)
Report the figure in % without appending any unit label.

Molecule	Emax [%]
N=C(N)NCCCC(=O)N[C@@H]1CC[C@@]2(O)[C@H]3Cc4ccc(O)cc4[C@@]2(CCN3CC2CC2)C1 [Compound 22]	5
CC(C)CCCC(=O)N[C@H]1C[C@@]2(O)[C@H]3Cc4ccc(O)cc4[C@@]2(CCN3CC2CC2)C[C@H]1O [Compound 62]	23.3
CC(C)C(=O)N[C@H]1C[C@@]2(O)[C@H]3Cc4ccc(O)cc4[C@@]2(CCN3C)C[C@H]1O [Compound 104]	23
COc1ccc2c(c1)[C@]13CCN(CC4CC4)[C@H](C2)[C@]12C[C@H](OCc1ccccc1)[C@H](C3)O2 [Compound 102]	10.5
N=C(N)Nc1ccc(N[C@@H]2CC[C@@]3(O)[C@H]4Cc5ccc(O)cc5[C@@]3(CCN4CC3CC3)C2)cc1 [Compound 24]	4.33

*Q* Request the reported Emax associated with N=C(N)NCC(=O)N[C@@H]1CC[C@@]2(O)[C@H]3Cc4ccc(O)cc4[C@@]2(CCN3CC2CC2)C1 [Compound 20]
*A* 7.33

*Q* I am curious: what Emax value has been reported for CCC(=O)N[C@H]1C[C@@]2(O)[C@H]3Cc4ccc(O)cc4[C@@]2(CCN3CC2CC2)C[C@H]1O [Compound 56] ?
*A* 1

*Q* Consider the molecule COc1ccc2c(c1)[C@]13CCN(CC4CC4)[C@H](C2)[C@]1(O)CC[C@H](O)C3 [Compound 4] and give its measured Emax.
*A* 33.7

*Q* # lookup: Emax of CC(C)CC[C@H]1C[C@@]2(O)[C@H]3Cc4ccc(O)cc4[C@@]2(CCN3C)C[C@H]1O [Compound 109]
*A* 41.1

---

- Experimental system: μ-opioid receptor (Homo sapiens, UniProt P35372)
- Sequence (P35372 whole entry, species assumed): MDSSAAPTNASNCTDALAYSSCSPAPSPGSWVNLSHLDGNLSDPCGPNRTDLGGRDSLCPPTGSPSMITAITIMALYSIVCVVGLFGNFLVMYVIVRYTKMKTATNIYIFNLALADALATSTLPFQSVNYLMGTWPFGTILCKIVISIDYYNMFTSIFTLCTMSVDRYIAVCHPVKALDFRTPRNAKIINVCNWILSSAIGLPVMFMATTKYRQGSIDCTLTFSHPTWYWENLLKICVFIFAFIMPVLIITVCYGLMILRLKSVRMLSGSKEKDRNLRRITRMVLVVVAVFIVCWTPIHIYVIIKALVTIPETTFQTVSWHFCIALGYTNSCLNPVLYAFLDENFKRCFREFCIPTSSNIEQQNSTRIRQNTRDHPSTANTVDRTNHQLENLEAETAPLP
- Test protocol: μ-opioid receptor [35S]GTPγS functional assay, U-2 OS cells
- Type: biochemical
- Parameters: host or cells: U-2 OS cells
pEC50: −log10 of the molar value.
Threshold check on pEC50: at or above 7 gives Fulfilled, strictly below gives Not fulfilled.

*Q* Check the entry COc1ccc2c(c1)[C@@]13CC[C@@H](O)C[C@@]1(O)[C@@H](C2)N(CC1CC1)CC3 [Compound 52] : does pEC50 equal or exceed 7?
*A* Not fulfilled

*Q* Could you verify whether the entry N=C(N)NCC(=O)N[C@@H]1CC[C@@]2(O)[C@H]3Cc4ccc(O)cc4[C@@]2(CCN3CC2CC2)C1 [Compound 20] shows pEC50 of no less than 7?
*A* Not fulfilled

*Q* Tell me whether pEC50 is at least 7 here: CC(C)CC(=O)N[C@H]1C[C@@]2(O)[C@H]3Cc4ccc(O)cc4[C@@]2(CCN3CC2CC2)C[C@H]1O [Compound 60]
*A* Fulfilled

---

- Experimental system: human κ opioid receptor (Homo sapiens)
- Sequence (P41145 whole entry): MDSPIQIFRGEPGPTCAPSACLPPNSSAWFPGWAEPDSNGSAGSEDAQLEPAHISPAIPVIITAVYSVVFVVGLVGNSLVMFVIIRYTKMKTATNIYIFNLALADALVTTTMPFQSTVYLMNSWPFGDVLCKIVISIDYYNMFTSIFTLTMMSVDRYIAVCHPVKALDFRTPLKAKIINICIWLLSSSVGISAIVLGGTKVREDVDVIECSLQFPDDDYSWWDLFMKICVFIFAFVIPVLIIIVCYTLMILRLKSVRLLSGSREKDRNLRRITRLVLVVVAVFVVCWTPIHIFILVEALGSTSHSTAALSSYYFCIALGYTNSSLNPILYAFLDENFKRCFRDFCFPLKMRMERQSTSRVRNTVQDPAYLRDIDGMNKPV
- Test protocol: κ-opioid receptor [35S]GTPγS functional assay, U-2 OS cells
- Type: biochemical
- Set-up: expressed in transfected cells; host or cells: U-2 OS cells (in-house membranes)
- Experimental: Membranes from recombinant HEK-293 cells, CHO or U-2 OS cells expressing the recombinant human K opioid receptor (K) were prepared by lysing cells in ice cold hypotonic buffer (2.5 mM MgCl2, 50 mM HEPES, pH 7.4) (10 mL/10 cm dish) followed by homogenization with a tissue grinder/Teflon pestle. Functional [^35S]GTPγS binding assays were conducted as follows. […] Fifty μl/well scintillation cocktail (Perkin Elmer, Shelton, Conn.) was added and plates were counted in a Packard Top-Count for 1 min/well. […]
# maps each entry to its EC50
Just the number please, in nM, no unit attached.

# count of solved cases: 10
Molecule	EC50 / nM
CC(C)CN[C@H]1CC[C@]23CCN(CC4CC4)[C@H](Cc4ccc(O)cc42)[C@]3(O)C1 [Compound 42]	0.25
COc1ccc2c(c1)[C@]13CCN(CC4CC4)[C@H](C2)[C@]1(O)C[C@@H](NCC(C)C)[C@@H](O)C3 [Compound 33]	328
Oc1ccc2c(c1)[C@]13CCN(CC4CC4)[C@H](C2)[C@]1(O)C[C@@H](NCc1ccccc1)[C@@H](O)C3 [Compound 36]	0.34
N=C(N)NCCC(=O)N[C@@H]1CC[C@@]2(O)[C@H]3Cc4ccc(O)cc4[C@@]2(CCN3CC2CC2)C1 [Compound 21]	120
N=C(N)Nc1ccc(N[C@@H]2CC[C@@]3(O)[C@H]4Cc5ccc(O)cc5[C@@]3(CCN4CC3CC3)C2)cc1 [Compound 24]	2.91
NCCCN[C@@H]1CC[C@@]2(O)[C@H]3Cc4ccc(O)cc4[C@@]2(CCN3CC2CC2)C1 [Compound 13]	2.13
NCCCCN[C@@H]1CC[C@@]2(O)[C@H]3Cc4ccc(O)cc4[C@@]2(CCN3CC2CC2)C1 [Compound 14]	5.47
N=C(N)NCCCC(=O)N[C@@H]1CC[C@@]2(O)[C@H]3Cc4ccc(O)cc4[C@@]2(CCN3CC2CC2)C1 [Compound 22]	27.1
COc1ccc2c(c1)[C@]13CCN(CC4CC4)[C@H](C2)[C@]1(O)C[C@H](NC(=O)C(C)C)C(O)C3 (stereo partly shown) [Compound 49]	7940
CCC(=O)N[C@H]1C[C@@]2(O)[C@H]3Cc4ccc(O)cc4[C@@]2(CCN3CC2CC2)C[C@@H]1O [Compound 57]	33.1

*Q* Would you kindly share the measured EC50 for CC(C)CCC(=O)N[C@H]1C[C@@]2(O)[C@H]3Cc4ccc(O)cc4[C@@]2(CCN3CC2CC2)C[C@H]1O [Compound 61] ?
*A* 15.4

*Q* # input molecule: CC(C)C(=O)N[C@H]1C[C@@]2(O)[C@H]3Cc4ccc(O)cc4[C@@]2(CCN3CC2CC2)CC1O (stereo partly shown) [Compound 50] ; wanted: its EC50
*A* 47.3

*Q* Look at this molecule and give its reported EC50. N=C(N)NCC(=O)N[C@@H]1CC[C@@]2(O)[C@H]3Cc4ccc(O)cc4[C@@]2(CCN3CC2CC2)C1 [Compound 20]
*A* 62.3

*Q* Name the reported EC50 value associated with the molecule Oc1ccc2c(c1)[C@]13CCN(CC4CC4)[C@H](C2)[C@]1(O)C[C@H](CC1CCCC1)[C@H](O)C3 [Compound 54]
*A* 32.1

*Q* Record request: EC50 value, item N=C(N)NCCN[C@@H]1CC[C@@]2(O)[C@H]3Cc4ccc(O)cc4[C@@]2(CCN3CC2CC2)C1 [Compound 12]
*A* 5.06

*Q* Fill blank: measured EC50 of the molecule CC(C)C(=O)N[C@H]1C[C@@]2(O)[C@H]3Cc4ccc(O)cc4[C@@]2(CCN3CC2CC2)C[C@H]1O [Compound 58] is ____.
*A* 38.1

*Q* Request the reported EC50 associated with NCCN[C@@H]1CC[C@@]2(O)[C@H]3Cc4ccc(O)cc4[C@@]2(CCN3CC2CC2)C1 [Compound 11]
*A* 2.75

*Q* // query EC50 value for entry CC(=O)N[C@H]1C[C@@]2(O)[C@H]3Cc4ccc(O)cc4[C@@]2(CCN3CC2CC2)C[C@H]1O [Compound 55]
*A* 194

*Q* Consider the molecule shown here: Oc1ccc2c(c1)[C@]13CCN(CC4CC4)[C@H](C2)[C@]1(O)C[C@@H](N1CCCC1)[C@@H](O)C3 [Compound 38] What is its recorded EC50?
*A* 0.33

*Q* I would be grateful if you could share the reported EC50 for CCC(C)C[C@H]1C[C@@]2(O)[C@H]3Cc4ccc(O)cc4[C@@]2(CCN3CC2CC2)C[C@H]1O (stereo partly shown) [Compound 53] .
*A* 73.8

---

- Experimental system: UniProtKB P35372
- Test protocol: μ-opioid receptor [35S]GTPγS functional assay, HEK-293 or CHO cells
- Assay type: biochemical
Labelling field: enter 1 if recorded EC50 is less than 2000 nM. Enter 0 if it equals or exceeds that cut-off.

Would you please look over these solved cases?
Compound	Experimental system	Label class
CC(C)CC[C@H]1C[C@@]2(O)[C@H]3Cc4ccc(O)cc4[C@@]2(CCN3C)C[C@H]1O	UniProtKB P35372	1
Oc1ccc2c(c1)[C@]13CCN(CC4CC4)[C@H](C2)[C@]1(O)C[C@H](Cc1ccccc1)[C@H](O)C3	UniProtKB P35372	0
CC(C)CCC(=O)N[C@H]1C[C@@]2(O)[C@H]3Cc4ccc(O)cc4[C@@]2(CCN3C)CC1O (some centres unmarked)	UniProtKB P35372	0
N=C(N)NCCCCN[C@@H]1CC[C@@]2(O)[C@H]3Cc4ccc(O)cc4[C@@]2(CCN3CC2CC2)C1	UniProtKB P35372	1
CC(C)CN[C@@H]1C[C@@]2(O)[C@H]3Cc4ccc(O)cc4[C@@]2(CCN3CC2CC2)C[C@@H]1O	UniProtKB P35372	0

*Q* Confirm or reject: EC50 of CC(C)CCCC(=O)N[C@H]1C[C@@]2(O)[C@H]3Cc4ccc(O)cc4[C@@]2(CCN3C)CC1O (some centres unmarked) lies strictly below 2000 nM
*A* 1

*Q* Say whether its EC50 is strictly beneath 2000 nM. Entry: `CN(C)[C@@H]1CC[C@@]2(O)[C@H]3Cc4ccc(O)cc4[C@@]2(CCN3C)C1`
*A* 1

*Q* Determine if `CCN[C@H]1C[C@@]2(O)[C@H]3Cc4ccc(O)cc4[C@@]2(CCN3C)C[C@@H]1O` shows EC50 strictly lower than 2000 nM.
*A* 0

*Q* Problem: For the compound `N=C(N)NCCCC(=O)N[C@@H]1CC[C@@]2(O)[C@H]3Cc4ccc(O)cc4[C@@]2(CCN3CC2CC2)C1` , is EC50 under 2000 nM?
*A* 0

*Q* Field: below-cutoff. Rule: recorded EC50 strictly less than 2000 nM. Subject: `NCCN[C@@H]1CC[C@@]2(O)[C@H]3Cc4ccc(O)cc4[C@@]2(CCN3CC2CC2)C1`
*A* 0

*Q* Just wondering, is EC50 of `CN(C)[C@H]1CC[C@@]2(O)[C@H]3Cc4ccc(O)cc4[C@@]2(CCN3CC2CC2)C1` below 2000 nM?
*A* 0

*Q* Consider the compound `N=C(N)NCCCN[C@@H]1CC[C@@]2(O)[C@H]3Cc4ccc(O)cc4[C@@]2(CCN3CC2CC2)C1` . Is its EC50 strictly less than 2000 nM?
*A* 1

*Q* Answer whether the compound `CC(C)CCCC(=O)O[C@@H]1C[C@]23CCN(CC4CC4)[C@H](Cc4ccc(O)cc42)[C@]3(O)C[C@@H]1N` has EC50 strictly less than 2000 nM
*A* 1

*Q* Determine if `CC(C)C(=O)N[C@H]1CC[C@]23CCN(CC4CC4)[C@H](Cc4ccc(O)cc42)[C@]3(O)C1` shows EC50 strictly lower than 2000 nM.
*A* 0

Where do these numbers come from? They come from patent US20200148646A1.
